Hi there, I'd appreciate the recorded Kd for every entry that follows.
Target: T1, His-tagged PD-L1 ECD protein (ACROBiosystems) (human, UniProt Q9NZQ7 19-238)
T1 construct: Bought protein; also called PD-L1-His; PD-L1/His; not shown: His tag
T1 sequence (Q9NZQ7 19-238): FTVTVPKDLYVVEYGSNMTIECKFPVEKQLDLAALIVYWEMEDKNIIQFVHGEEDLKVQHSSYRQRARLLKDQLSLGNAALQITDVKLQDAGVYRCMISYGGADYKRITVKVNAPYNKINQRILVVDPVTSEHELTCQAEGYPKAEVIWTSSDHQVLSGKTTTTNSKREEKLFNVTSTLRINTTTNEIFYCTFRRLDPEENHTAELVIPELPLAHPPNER
Test: SPR, IgG captured by anti-human Fc, PD-L1-His analyte
Return type: number; implicit unit nM.

Qu. Which Kd is listed for 29A8_chimeric (antibody, human IgG1, kappa, N297A, V domains shown, Human IgG1 with effector-less Fc mutations, human kappa; also called chimeric 29A8H8C7) VH: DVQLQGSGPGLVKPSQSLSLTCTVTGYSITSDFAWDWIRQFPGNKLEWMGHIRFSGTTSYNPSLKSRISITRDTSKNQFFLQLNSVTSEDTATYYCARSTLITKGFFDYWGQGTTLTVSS VL: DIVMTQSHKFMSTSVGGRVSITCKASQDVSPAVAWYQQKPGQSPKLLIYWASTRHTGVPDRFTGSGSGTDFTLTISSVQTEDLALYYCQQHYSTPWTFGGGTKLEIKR ?
Ans. 0.3

Qu. Which Kd is listed for 53C1_VH3-VL1.M1 (antibody, human IgG1, kappa, N297A, V domains shown, Humanized, hIgG1 effector-less Fc, kappa; see recheck on K24R in the .M1 light chain) VH: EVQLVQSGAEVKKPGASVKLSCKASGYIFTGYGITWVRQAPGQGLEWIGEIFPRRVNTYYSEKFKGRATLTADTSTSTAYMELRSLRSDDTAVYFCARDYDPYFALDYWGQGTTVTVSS VL: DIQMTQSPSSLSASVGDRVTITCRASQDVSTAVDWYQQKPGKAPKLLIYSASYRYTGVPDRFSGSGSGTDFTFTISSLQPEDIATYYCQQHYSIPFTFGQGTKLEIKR ?
Ans. 0.55

Qu. Which Kd is listed for 53C1_chimeric (antibody, human IgG1, kappa, N297A, V domains shown, Human IgG1 with effector-less Fc mutations, human kappa; also called chimeric 53C1F3D4) VH: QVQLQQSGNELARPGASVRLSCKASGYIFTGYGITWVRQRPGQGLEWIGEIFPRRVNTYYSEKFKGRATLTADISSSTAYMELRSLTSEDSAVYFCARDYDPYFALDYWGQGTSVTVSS VL: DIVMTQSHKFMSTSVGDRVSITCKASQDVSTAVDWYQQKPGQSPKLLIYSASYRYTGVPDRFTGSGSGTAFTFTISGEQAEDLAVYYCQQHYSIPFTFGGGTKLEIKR ?
Ans. 0.78

Qu. Which Kd is listed for 29A8_VH5-VL1.M1 (antibody, human IgG1, kappa, N297A, V domains shown, Humanized, hIgG1 effector-less Fc, kappa; see recheck on K24R in the .M1 light chain) VH: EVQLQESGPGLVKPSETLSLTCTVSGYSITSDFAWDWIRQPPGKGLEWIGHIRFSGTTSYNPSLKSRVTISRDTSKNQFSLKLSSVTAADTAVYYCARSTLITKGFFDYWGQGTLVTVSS VL: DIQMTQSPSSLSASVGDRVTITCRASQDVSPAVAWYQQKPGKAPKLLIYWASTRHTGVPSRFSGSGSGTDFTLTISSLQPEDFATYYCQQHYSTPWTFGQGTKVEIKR ?
Ans. 0.74
